# targetOrTestSystem: UniProtKB Q9GZT9
# Sequence (Q9GZT9 whole entry): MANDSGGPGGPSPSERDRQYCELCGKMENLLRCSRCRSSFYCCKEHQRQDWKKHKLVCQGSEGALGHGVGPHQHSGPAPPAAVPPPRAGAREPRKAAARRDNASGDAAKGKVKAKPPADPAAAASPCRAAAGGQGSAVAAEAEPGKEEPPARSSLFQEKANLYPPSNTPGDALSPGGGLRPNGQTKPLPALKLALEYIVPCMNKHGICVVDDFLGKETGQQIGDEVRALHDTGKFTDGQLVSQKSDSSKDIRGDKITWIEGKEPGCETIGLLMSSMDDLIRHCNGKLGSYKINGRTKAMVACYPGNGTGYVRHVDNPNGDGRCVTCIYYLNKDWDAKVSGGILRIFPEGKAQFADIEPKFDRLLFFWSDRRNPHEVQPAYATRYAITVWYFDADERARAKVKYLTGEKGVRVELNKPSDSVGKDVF
# testProtocol: Test 1: human PHD2 inhibitory activity, [14C]-2-oxoglutarate to [14C]-succinic acid radiometric assay with HIF-1α peptide
# Type: biochemical
# runConditions: test compound's concentration 1 μM; Test 1, [14C]-2-oxoglutarate radiometric assay; read-out: Percent inhibition (% at 1 μM)
Listed here are compounds together with their documented inhibition at 1 µM.
Answer format: numeric, % implied, no suffix.

Would you please look over these solved cases?
1) CC1(C)CC(O)=C(C(=O)NCC(=O)O)C(=O)N1Cc1ccc(OC2CCCC2)cc1 = 65
2) CCC1CC(O)=C(C(=O)NCC(=O)O)C(=O)N1Cc1ccc(C(F)(F)F)cc1 (centres unmarked) = 77
3) O=C(O)CNC(=O)C1=C(O)CC2(CCCCC2)N(Cc2ccc(-c3ccccn3)cc2)C1=O = 68
4) O=C(O)CNC(=O)C1=C(O)CCN(Cc2ccc(Oc3ccccc3)nc2)C1=O = 98

IN: Look up inhibition at 1 µM of `Cc1ccc(-c2ccc(CN3CCC(O)=C(C(=O)NCC(=O)O)C3=O)cc2)cc1` and report it.
OUT: 93

IN: Look up inhibition at 1 µM of `CC1(C)CC(O)=C(C(=O)NCC(=O)O)C(=O)N1Cc1ccc(-c2ccc(C(F)(F)F)cc2)cc1` and report it.
OUT: 77

IN: Look up inhibition at 1 µM of `O=C(O)CNC(=O)C1=C(O)CC2(COC2)N(Cc2cnc(-c3ccccc3)s2)C1=O` and report it.
OUT: 90

IN: Look up inhibition at 1 µM of `COc1ccc(CN2C(=O)C(C(=O)NCC(=O)O)=C(O)CC2(C)C)cc1F` and report it.
OUT: 54

Ref: patent US9422240B2
